Just for reference, patent US10428022B2 is where these values come from.

# TEST_DETAILS: In vivo pharmacokinetics in guinea pig
# CONDITION_SET: guinea pig, plasma
QUANTITY: clearance (mL/min/kg)
Numbers only here, please. The scale is mL/min/kg.

**Query** I am curious: what clearance value has been reported for [N-]=[N+]=Nc1ccc(NCCCCCCN2C[C@H](O)[C@@H](O)[C@H](O)[C@H]2CO)c([N+](=O)[O-])c1 ?
**Result** 233

---

# TEST_DETAILS: In vivo pharmacokinetics in mouse
# CONDITION_SET: plasma; Mouse, single dose, tested IV, oral routes
QUANTITY: Tmax (h)
Give a bare numeral; the unit h is implied.

**Query** State the recorded Tmax for this entry: [N-]=[N+]=Nc1ccc(NCCCCCCN2C[C@H](O)[C@@H](O)[C@H](O)[C@H]2CO)c([N+](=O)[O-])c1
**Result** 1

---

# TEST_DETAILS: In vivo pharmacokinetics and oral bioavailability in rat
# Set-up: species or system male Sprague-Dawley rats
# CONDITION_SET: male, Sprague-Dawley, plasma, PO 10 mg/kg vs IV 5 mg/kg
QUANTITY: bioavailability
Answer as a quantity: numeral, then unit.

**Query** What does the record list as bioavailability for O=[N+]([O-])c1cc(-n2nccn2)ccc1NCCCCCCN1C[C@H](O)[C@@H](O)[C@H](O)[C@H]1CO ?
**Result** 6%

---

# TEST_DETAILS: In vivo pharmacokinetics and oral bioavailability in rat
# Set-up: species or system male Sprague-Dawley rats
# CONDITION_SET: male, Sprague-Dawley, plasma, single dose, PO 10 mg/kg, read-out: T1/2 (PO)
QUANTITY: half-life (h)
Entry rule: numbers only, all in h.

**Query** Look at this compound and give its reported half-life. O=[N+]([O-])c1cc(-n2nccn2)ccc1NCCCCCCN1C[C@H](O)[C@@H](O)[C@H](O)[C@H]1CO [UV-0060]
**Result** 2.2

---

# TEST_DETAILS: In vivo pharmacokinetics in mouse
# CONDITION_SET: mouse, plasma, Mouse, single dose, tested IV, oral routes; read-out: T1/2
QUANTITY: half-life

**Query** GET /values?readout=half-life&item= [N-]=[N+]=Nc1ccc(NCCCCCCN2C[C@H](O)[C@@H](O)[C@H](O)[C@H]2CO)c([N+](=O)[O-])c1 [UV-5]
**Result** 4.09 to 8.96 h

---

Measured IC50 by item
# System: Venezuelan Equine Encephalitis Virus (VEEV TC-83 stain)
# TEST_DETAILS: microbe, parasite or virus in culture
# Format: cell-based
# CONDITION_SET: Vero, 72 h, read-out: IC50 Venezuelan Equine Encephalitis TC-83 (VEEV)
Please give a number only; it is taken to be in µM.

{"columns": ["SMILES_REPRESENTATION", "SYSTEM_NAME", "QUANTITY_UNIT", "ENDPOINT_RESULT"],
 "data": [
  ["O=[N+]([O-])c1cc(-n2nccn2)ccc1NCCCCCCN1C[C@H](O)[C@@H](O)[C@H](O)[C@H]1CO", "Venezuelan Equine Encephalitis Virus (VEEV TC-83 stain)", "µM", 94.1]
]}

Continue with the molecule presented below.
**Query** Which IC50 value is on record for OC[C@@H]1[C@@H](O)[C@H](O)[C@@H](O)CN1CCCCCCCCc1ccco1 ?
**Result** 14

---

# TEST_DETAILS: In vivo pharmacokinetics and oral bioavailability in rat
# Set-up: species or system male Sprague-Dawley rats
# CONDITION_SET: male, Sprague-Dawley, plasma, single dose, PO 10 mg/kg
QUANTITY: Tmax (h)
The reply should contain only the number, in h.

**Query** // query Tmax value for entry O=[N+]([O-])c1cc(-n2nccn2)ccc1NCCCCCCN1C[C@H](O)[C@@H](O)[C@H](O)[C@H]1CO [UV-0060]
**Result** 2.2

---

# TEST_DETAILS: Human microsomal stability (Cerep)
# Type: in vitro ADME
# CONDITION_SET: human microsomes; read-out: Human microsomal stability: t½
QUANTITY: half-life

**Query** Field request: half-life | item: O=[N+]([O-])c1cc(-n2nccn2)ccc1NCCCCCCN1C[C@H](O)[C@@H](O)[C@H](O)[C@H]1CO [UV-0060]
**Result** > 1 h

---

# TEST_DETAILS: In vivo pharmacokinetics and oral bioavailability in rat
# Parameters: species or system male Sprague-Dawley rats
# CONDITION_SET: male, Sprague-Dawley, plasma, single dose, IV 5 mg/kg, read-out: T1/2 (IV)
QUANTITY: half-life (h)
# value in h; strip the unit string

**Query** Request the reported half-life associated with O=[N+]([O-])c1cc(-n2nccn2)ccc1NCCCCCCN1C[C@H](O)[C@@H](O)[C@H](O)[C@H]1CO [UV-0060]
**Result** 2.8

---

# SYSTEM_NAME: CYP3A4 (Homo sapiens, UniProt P08684)
# Construct: Cerep
# Sequence (P08684 whole entry): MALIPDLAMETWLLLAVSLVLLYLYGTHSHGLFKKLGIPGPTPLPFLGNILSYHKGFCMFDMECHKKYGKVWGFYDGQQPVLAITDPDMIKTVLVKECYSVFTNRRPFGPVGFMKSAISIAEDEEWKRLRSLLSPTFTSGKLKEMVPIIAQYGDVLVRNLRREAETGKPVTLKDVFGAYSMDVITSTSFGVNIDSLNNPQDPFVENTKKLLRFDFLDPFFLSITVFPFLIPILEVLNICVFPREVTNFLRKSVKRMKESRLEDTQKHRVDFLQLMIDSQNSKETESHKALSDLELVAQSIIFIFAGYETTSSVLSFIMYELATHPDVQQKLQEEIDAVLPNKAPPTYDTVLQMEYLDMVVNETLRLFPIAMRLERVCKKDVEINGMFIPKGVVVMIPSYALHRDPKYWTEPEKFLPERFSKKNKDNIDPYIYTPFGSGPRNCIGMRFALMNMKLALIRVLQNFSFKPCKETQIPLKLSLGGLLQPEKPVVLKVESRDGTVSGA
# TEST_DETAILS: CYP450 3A4 inhibition (Cerep)
# Format: in vitro ADME
QUANTITY: inhibition at 10 µM (%)
Report the value in % with no unit label.

**Query** Reported inhibition at 10 µM for CYP3A4 (Homo sapiens, UniProt P08684), given O=[N+]([O-])c1cc(-n2nccn2)ccc1NCCCCCCN1C[C@H](O)[C@@H](O)[C@H](O)[C@H]1CO ?
**Result** 0.2

---

# TEST_DETAILS: In vivo pharmacokinetics in guinea pig
# CONDITION_SET: plasma; Guinea pig, single dose, tested IV, SQ, IM routes
QUANTITY: Tmax

**Query** // Tmax lookup, key: [N-]=[N+]=Nc1ccc(NCCCCCCN2C[C@H](O)[C@@H](O)[C@H](O)[C@H]2CO)c([N+](=O)[O-])c1
**Result** 45 to 67.8 min

---

# TEST_DETAILS: Aqueous solubility in acidified water
# Assay type: physicochemical
# CONDITION_SET: aqueous buffer; in acidified water pH~4
QUANTITY: solubility

**Query** Any idea what its solubility is? The molecule is [N-]=[N+]=Nc1ccc(NCCCCCCN2C[C@H](O)[C@@H](O)[C@H](O)[C@H]2CO)c([N+](=O)[O-])c1
**Result** > 112 mg/mL

---

# TEST_DETAILS: In vivo pharmacokinetics in guinea pig
# CONDITION_SET: guinea pig, plasma; read-out: Vss
QUANTITY: Vd (L/kg)
Give the value, in units of L/kg, as a plain number.

**Query** Suppose we examine the compound [N-]=[N+]=Nc1ccc(NCCCCCCN2C[C@H](O)[C@@H](O)[C@H](O)[C@H]2CO)c([N+](=O)[O-])c1 [UV-5] ; what Vd value has been reported?
**Result** 16.9
